Test system: 377384-186-R-J1-PDC complex spheroid viability
experimental protocol: Anticancer human tumor 377384-186-R-J1-PDC patient-derived pancreatic carcinoma cell line growth inhibition [CLK]
test context: second compound 0.1 µM; first compound 0.316 µM; stronger effect = lower value
// returns Criterion not met unless viability, T/C is strictly below 60%, in which case Criterion met

Please review the following examples before continuing.
compound | class
O=C(c1cc(Cc2n[nH]c(=O)c3ccccc23)ccc1F)N1CCN(C(=O)C2CC2)CC1 + CNC(=O)c1ccc(Nc2nc(OC3CCCC3)c3c(-c4ccc5nc(C)oc5c4)c[nH]c3n2)c(OC)c1 | Criterion met
O=C(c1cc(Cc2n[nH]c(=O)c3ccccc23)ccc1F)N1CCN(C(=O)C2CC2)CC1 + CN1CCN(c2cc(C(=O)Nc3cc4cc(-c5cnn(C)c5)ccc4cn3)ccn2)CC1 | Criterion not met
Nc1ccccc1NC(=O)c1ccc(CNC(=O)OCc2cccnc2)cc1 + CNC(=O)c1ccc(Nc2nc(OC3CCCC3)c3c(-c4ccc5nc(C)oc5c4)c[nH]c3n2)c(OC)c1 | Criterion met

Consider the compound CC1(C)CCC(CN2CCN(c3ccc(C(=O)NS(=O)(=O)c4ccc(NCC5CCOCC5)c([N+](=O)[O-])c4)c(Oc4cnc5[nH]ccc5c4)c3)CC2)=C(c2ccc(Cl)cc2)C1 + CNC(=O)c1ccc(Nc2nc(OC3CCCC3)c3c(-c4ccc5nc(C)oc5c4)c[nH]c3n2)c(OC)c1 . Is its viability, T/C strictly less than 60%?
Criterion met

Please state whether viability, T/C is below 60% for CCCS(=O)(=O)Nc1ccc(F)c(C(=O)c2c[nH]c3ncc(-c4ccc(Cl)cc4)cc23)c1F + CNC(=O)c1ccc(Nc2nc(OC3CCCC3)c3c(-c4ccc5nc(C)oc5c4)c[nH]c3n2)c(OC)c1
Criterion met

viability, T/C strictly < 60% for this compound? C=CC(=O)N1CCN(c2nc(=O)n(-c3c(C)ccnc3C(C)C)c3nc(-c4c(O)cccc4F)c(F)cc23)C(C)C1 (stereo not given) + CNC(=O)c1ccc(Nc2nc(OC3CCCC3)c3c(-c4ccc5nc(C)oc5c4)c[nH]c3n2)c(OC)c1
Criterion met

Given the entry Nc1ccn(C2OC(CO)C(O)C2(F)F)c(=O)n1 (stereo not given) + CN1CCN(c2cc(C(=O)Nc3cc4cc(-c5cnn(C)c5)ccc4cn3)ccn2)CC1 , would its reported viability, T/C be below 60%?
Criterion met

I'd appreciate it if you could check whether COc1ccc([C@@H](O)c2cc(-c3ncnc4cc(N5CCOCC5)ccc34)c(F)cc2Cl)nn1 + CN1CCN(c2cc(C(=O)Nc3cc4cc(-c5cnn(C)c5)ccc4cn3)ccn2)CC1 has viability, T/C smaller than 60%.
Criterion not met

State whether 60% exceeds viability, T/C recorded for CC1COCCN1c1cc(C2(S(C)(=N)=O)CC2)nc(-c2ccnc3[nH]ccc23)n1 (stereo not given) + CN1CCN(c2cc(C(=O)Nc3cc4cc(-c5cnn(C)c5)ccc4cn3)ccn2)CC1 .
Criterion not met

Quick check: viability, T/C of CCc1c2c(nc3ccc(O)cc13)-c1cc3c(c(=O)n1C2)COC(=O)[C@]3(O)CC + CNC(=O)c1ccc(Nc2nc(OC3CCCC3)c3c(-c4ccc5nc(C)oc5c4)c[nH]c3n2)c(OC)c1 under 60%?
Criterion met

* * *

System: 377384-186-R-J1-PDC complex spheroid viability
experimental protocol: Anticancer human tumor 377384-186-R-J1-PDC cell line growth inhibition [CLK]; active means viability on the fitted dose curve at most 10% of control; inactive means the rest;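 note: luminescence signal used as a stand-in for viable cells; spheroids exposed to agents for 7 days before reading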
test context: second compound 0.316 µM; first compound 10 µM
In this exercise, the only acceptable responses are true = active, false = inactive

How was Nc1ccn(C2OC(CO)C(O)C2(F)F)c(=O)n1 (centres undefined) + CNC(=O)c1ccc(Nc2nc(OC3CCCC3)c3c(-c4ccc5nc(C)oc5c4)c[nH]c3n2)c(OC)c1 classified in this test?
true

How did this test come out for COC1C=CCC(C)C(C)S(=O)(=O)NC(=O)c2ccc3c(c2)N(CC2CCC21)CC1(CCCc2cc(Cl)ccc21)CO3 (centres undefined) + CN1CCN(c2cc(C(=O)Nc3cc4cc(-c5cnn(C)c5)ccc4cn3)ccn2)CC1 ?
true

# lookup: test call for COc1ccc([C@@H](O)c2cc(-c3ncnc4cc(N5CCOCC5)ccc34)c(F)cc2Cl)nn1 + CN1CCN(c2cc(C(=O)Nc3cc4cc(-c5cnn(C)c5)ccc4cn3)ccn2)CC1
false

Tell me the assay call for O=c1[nH]cc(F)c(=O)[nH]1 + CNC(=O)c1ccc(Nc2nc(OC3CCCC3)c3c(-c4ccc5nc(C)oc5c4)c[nH]c3n2)c(OC)c1 please.
false

* * *

Test system: 377384-186-R-J1-PDC complex spheroid viability
experimental protocol: Anticancer human tumor 377384-186-R-J1-PDC cell line growth inhibition [CLK];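 note: luminescence signal used as a stand-in for viable cells; spheroids exposed to agents for 7 days before reading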
test context: second compound 1 µM; first compound 1 µM; stronger effect = lower value
Can you tell me viability, T/C for the items I'm about to list?
One number for each entry, in %.

Consider the worked cases shown below.
molecule | observed measurement
CCN1CCN(Cc2ccc(Nc3ncc(F)c(-c4cc(F)c5nc(C)n(C(C)C)c5c4)n3)nc2)CC1 + CN1CCN(c2cc(C(=O)Nc3cc4cc(-c5cnn(C)c5)ccc4cn3)ccn2)CC1 | 1.25
COC1C=CCC(C)C(C)S(=O)(=O)NC(=O)c2ccc3c(c2)N(CC2CCC21)CC1(CCCc2cc(Cl)ccc21)CO3 (centres undefined) + CN1CCN(c2cc(C(=O)Nc3cc4cc(-c5cnn(C)c5)ccc4cn3)ccn2)CC1 | 1.15
O=C(c1cc(Cc2n[nH]c(=O)c3ccccc23)ccc1F)N1CCN(C(=O)C2CC2)CC1 + CNC(=O)c1ccc(Nc2nc(OC3CCCC3)c3c(-c4ccc5nc(C)oc5c4)c[nH]c3n2)c(OC)c1 | 21.3
O=c1[nH]cc(F)c(=O)[nH]1 + CNC(=O)c1ccc(Nc2nc(OC3CCCC3)c3c(-c4ccc5nc(C)oc5c4)c[nH]c3n2)c(OC)c1 | 14.9
O=C(c1cc(Cc2n[nH]c(=O)c3ccccc23)ccc1F)N1CCN(C(=O)C2CC2)CC1 + CN1CCN(c2cc(C(=O)Nc3cc4cc(-c5cnn(C)c5)ccc4cn3)ccn2)CC1 | 1.53

Please state viability, T/C for every molecule in the list that follows.
1. COc1cccc2c1C(=O)c1c(O)c3c(c(O)c1C2=O)CC(O)(C(=O)CO)CC3OC1CC(N)C(O)C(C)O1 (centres undefined) + CNC(=O)c1ccc(Nc2nc(OC3CCCC3)c3c(-c4ccc5nc(C)oc5c4)c[nH]c3n2)c(OC)c1
2. C=CC(=O)N1CCN(c2nc(=O)n(-c3c(C)ccnc3C(C)C)c3nc(-c4c(O)cccc4F)c(F)cc23)C(C)C1 (centres undefined) + CN1CCN(c2cc(C(=O)Nc3cc4cc(-c5cnn(C)c5)ccc4cn3)ccn2)CC1
3. CCc1c2c(nc3ccc(O)cc13)-c1cc3c(c(=O)n1C2)COC(=O)[C@]3(O)CC + CN1CCN(c2cc(C(=O)Nc3cc4cc(-c5cnn(C)c5)ccc4cn3)ccn2)CC1
4. C#Cc1c(F)ccc2cc(O)cc(-c3ncc4c(N5CC6CCC(C5)N6)nc(OCC56CCCN5CC(F)C6)nc4c3F)c12 (centres undefined) + CNC(=O)c1ccc(Nc2nc(OC3CCCC3)c3c(-c4ccc5nc(C)oc5c4)c[nH]c3n2)c(OC)c1

1. 0.52
2. 1.24
3. 0.3
4. 1.64

* * *

System: 377384-186-R-J1-PDC complex spheroid viability
experimental protocol: Anticancer human tumor 377384-186-R-J1-PDC cell line growth inhibition [CLK]; active = viability on the fitted dose curve at most 10% of control; inactive = the rest;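 note: luminescence signal used as a stand-in for viable cells; spheroids exposed to agents for 7 days before reading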
test context: second compound 10 µM; first compound 0.0316 µM
Bench note: report the call from T = active, F = inactive

Example results:
compound | class
C=C(F)C(=O)N1CCN(c2nc(OCC3CCCN3C)nc3c2CCN(c2cccc4cccc(Cl)c24)C3)CC1CC#N (stereo not drawn) + CN1CCN(c2cc(C(=O)Nc3cc4cc(-c5cnn(C)c5)ccc4cn3)ccn2)CC1 | T
COc1c(OCCCN2CCOCC2)ccc2c3n(c(=NC(=O)c4cnc(N)nc4)nc12)CCN3 + CNC(=O)c1ccc(Nc2nc(OC3CCCC3)c3c(-c4ccc5nc(C)oc5c4)c[nH]c3n2)c(OC)c1 | F

Hi, do you know how CC(Nc1ccc2c(c1)OCCn1cc(N3C(=O)OCC3C(F)F)nc1-2)C(N)=O (stereo not drawn) + CNC(=O)c1ccc(Nc2nc(OC3CCCC3)c3c(-c4ccc5nc(C)oc5c4)c[nH]c3n2)c(OC)c1 came out in this test?
F

* * *

Test system: 377384-186-R-J1-PDC complex spheroid viability
experimental protocol: Anticancer human tumor 377384-186-R-J1-PDC cell line growth inhibition [CLK];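 note: luminescence signal used as a stand-in for viable cells; spheroids exposed to agents for 7 days before reading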
test context: second compound 3.16 µM; first compound 10 µM; stronger effect = lower value
Just a reminder that ties go to Not met: only viability, T/C strictly below 0.8% counts as Met.

Previously resolved entries follow.
compound | system under test | class
Nc1ccn(C2OC(CO)C(O)C2(F)F)c(=O)n1 (stereo not given) + CNC(=O)c1ccc(Nc2nc(OC3CCCC3)c3c(-c4ccc5nc(C)oc5c4)c[nH]c3n2)c(OC)c1 | 377384-186-R-J1-PDC complex spheroid viability | Not met
Nc1ccn(C2OC(CO)C(O)C2(F)F)c(=O)n1 (stereo not given) + CN1CCN(c2cc(C(=O)Nc3cc4cc(-c5cnn(C)c5)ccc4cn3)ccn2)CC1 | 377384-186-R-J1-PDC complex spheroid viability | Met
O=C(c1cc(Cc2n[nH]c(=O)c3ccccc23)ccc1F)N1CCN(C(=O)C2CC2)CC1 + CN1CCN(c2cc(C(=O)Nc3cc4cc(-c5cnn(C)c5)ccc4cn3)ccn2)CC1 | 377384-186-R-J1-PDC complex spheroid viability | Not met

Then there is this compound:
Quick check: does CC(=O)O[C@H]1C(=O)[C@@]2(C)[C@H]([C@H](OC(=O)c3ccccc3)[C@]3(O)C[C@H](OC(=O)[C@H](O)[C@@H](NC(=O)c4ccccc4)c4ccccc4)C(C)=C1C3(C)C)[C@]1(OC(C)=O)CO[C@@H]1C[C@@H]2O + CNC(=O)c1ccc(Nc2nc(OC3CCCC3)c3c(-c4ccc5nc(C)oc5c4)c[nH]c3n2)c(OC)c1 have viability, T/C under 0.8%?
Not met

Data provenance: PubChem BioAssay AID2060616
